Where a name gives a salt, the structure may show the parent alone.
Parameter 'readout' = IC50; parameter 'system' = human GST-CLK1 (129-end) (Homo sapiens, UniProt P49759).
Sequence (P49759 129-484 limits assumed): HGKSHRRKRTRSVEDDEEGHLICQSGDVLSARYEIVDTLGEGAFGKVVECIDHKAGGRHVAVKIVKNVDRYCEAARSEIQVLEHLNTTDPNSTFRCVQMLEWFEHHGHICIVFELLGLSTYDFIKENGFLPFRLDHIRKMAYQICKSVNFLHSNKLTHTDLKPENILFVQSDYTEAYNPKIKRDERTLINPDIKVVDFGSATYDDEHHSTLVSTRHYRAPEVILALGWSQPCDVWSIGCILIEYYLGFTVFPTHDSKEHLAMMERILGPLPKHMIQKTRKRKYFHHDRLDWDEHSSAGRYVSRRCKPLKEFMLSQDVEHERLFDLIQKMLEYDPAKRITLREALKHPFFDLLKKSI

Example cases with answers are listed next.
molecule | IC50
CNc1cc(Nc2ccc(C(=O)N3CCOCC3)c3c2OCCO3)nc2[nH]cc(C(F)(F)F)c12 [Example 152] | < 100 nM
COc1cc(S(C)(=O)=O)ccc1Nc1cc(NCC(C)C)c2c(C(F)(F)F)c[nH]c2n1 [Example 190] | 301 to 1000 nM
COc1cc(S(=O)(=O)N2CCC(N3CCOCC3)CC2)ccc1Nc1cc(NCC(C)C)c2c(C(F)(F)F)c[nH]c2n1 [Example 191] | 301 to 1000 nM
CCNc1cc(Nc2ccc(C(=O)N3CCN(C4COC4)CC3)c3c2OCCO3)nc2[nH]cc(C#N)c12 [Example 35] | 101 to 300 nM
CCNc1cc(Nc2ccc(C(=O)N3CCN(CCO)CC3)c3c2OCC3)nc2[nH]cc(C(F)(F)F)c12 [Example 253] | < 100 nM

Prompt: What is its IC50 for human GST-CLK1 (129-end) (Homo sapiens, UniProt P49759)? Entry: COc1cc(S(C)(=O)=O)ccc1Nc1cc(NC(C)C)c2cc[nH]c2n1 [Example 28]
Completion: 301 to 1000 nM

Prompt: What is its IC50 for human GST-CLK1 (129-end) (Homo sapiens, UniProt P49759)? Entry: O=C(c1ccc(Nc2cc(NC3CC3)c3c(C(F)(F)F)c[nH]c3n2)c2c1OCCO2)N1CCOCC1 [Example 155, trifluoroacetate]
Completion: < 100 nM

* * *

Target: DYRK1B (Homo sapiens, UniProt Q9Y463)
Construct: purchased DiscoverX
Sequence (Q9Y463 whole entry): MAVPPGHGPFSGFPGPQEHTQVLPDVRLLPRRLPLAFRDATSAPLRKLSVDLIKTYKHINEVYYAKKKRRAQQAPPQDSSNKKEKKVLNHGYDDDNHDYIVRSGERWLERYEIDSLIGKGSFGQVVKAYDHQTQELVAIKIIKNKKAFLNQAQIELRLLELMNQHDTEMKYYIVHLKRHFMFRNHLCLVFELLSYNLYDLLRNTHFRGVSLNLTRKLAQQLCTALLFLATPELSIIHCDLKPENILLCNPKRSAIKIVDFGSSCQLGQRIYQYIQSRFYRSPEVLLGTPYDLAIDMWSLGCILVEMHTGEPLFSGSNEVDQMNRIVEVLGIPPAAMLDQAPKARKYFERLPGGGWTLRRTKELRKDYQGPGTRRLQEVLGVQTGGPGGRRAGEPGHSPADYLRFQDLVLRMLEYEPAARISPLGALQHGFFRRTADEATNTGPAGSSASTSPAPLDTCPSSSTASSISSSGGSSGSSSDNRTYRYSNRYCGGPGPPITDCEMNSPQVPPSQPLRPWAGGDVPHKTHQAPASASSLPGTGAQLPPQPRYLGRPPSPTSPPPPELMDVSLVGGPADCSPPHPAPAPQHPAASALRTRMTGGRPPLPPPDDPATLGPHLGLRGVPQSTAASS
Test: scanMAX Kinase panel (DiscoverX), % control
Type: binding
Conditions: <35% = active
Parameter: remaining binding at 1 µM. Scope: all listed entries.
# unit: % | format: bare number

structureSmilesString | readoutUnits | observed
CCNc1cc(Nc2ccc(S(=O)(=O)N3CCC(N4CCOCC4)CC3)c3c2OCCO3)nc2[nH]cc(C(F)(F)F)c12 | % | 3
CNc1cc(Nc2ccc(P3(=O)CCN(C4CC4)CC3)cc2OC)nc2[nH]cc(C(F)(F)F)c12 | % | 2.5
CNc1cc(Nc2ccc(C(=O)N3CCC(N4CCOCC4)CC3)c3c2OCCO3)nc2[nH]cc(C(F)(F)F)c12 | % | 0
CNc1cc(Nc2ccc(S(=O)(=O)N3CCC(N4CCOCC4)CC3)cc2OC)nc2[nH]cc(C(F)(F)F)c12 | % | 13
O=C(c1ccc(Nc2cc(C3CC3)c3c(C(F)(F)F)c[nH]c3n2)c2c1CCO2)N1CC[C@@H](N2CCOCC2)C1 | % | 0.7

Prompt: Could you tell me which remaining binding at 1 µM is on file for "CCNc1cc(Nc2ccc(P3(=O)CCN(C4CC4)CC3)cc2OC)nc2[nH]cc(C(F)(F)F)c12" ?
Completion: 0

Prompt: Could you tell me which remaining binding at 1 µM is on file for "COCCNc1cc(Nc2ccc(P3(=O)CCN(C4CC4)CC3)cc2OC)nc2[nH]cc(C(F)(F)F)c12" ?
Completion: 0

* * *

Parameter: remaining binding at 1 µM. Scope: all listed entries.
Target: CLK4 (Homo sapiens)
Construct: purchased DiscoverX
Sequence (Q9HAZ1 whole entry): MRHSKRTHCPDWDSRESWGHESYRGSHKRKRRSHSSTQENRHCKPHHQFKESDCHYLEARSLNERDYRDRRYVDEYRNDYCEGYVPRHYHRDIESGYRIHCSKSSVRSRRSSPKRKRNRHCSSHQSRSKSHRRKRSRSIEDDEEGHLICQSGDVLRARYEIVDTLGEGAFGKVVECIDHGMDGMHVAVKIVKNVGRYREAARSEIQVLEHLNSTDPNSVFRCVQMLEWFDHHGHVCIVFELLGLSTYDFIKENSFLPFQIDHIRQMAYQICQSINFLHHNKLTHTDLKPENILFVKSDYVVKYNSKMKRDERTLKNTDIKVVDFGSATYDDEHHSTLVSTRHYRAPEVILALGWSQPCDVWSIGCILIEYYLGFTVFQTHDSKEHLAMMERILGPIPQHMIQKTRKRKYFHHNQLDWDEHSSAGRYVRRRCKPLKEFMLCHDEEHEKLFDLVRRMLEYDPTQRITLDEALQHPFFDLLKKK
Assay: scanMAX Kinase panel (DiscoverX), % control
Assay type: binding
Details: <35% = active
# unit: % | format: bare number

Example cases with answers are listed next.
compound | readoutUnits | remaining binding at 1 µM
COCCNc1cc(Nc2ccc(P3(=O)CCN(C4CC4)CC3)cc2OC)nc2[nH]cc(C(F)(F)F)c12 [Example 207] | % | 0.55
O=C(c1ccc(Nc2cc(C3CC3)c3c(C(F)(F)F)c[nH]c3n2)c2c1CCO2)N1CC[C@H](N2CCOCC2)C1 [Example 237] | % | 0.55
CNc1cc(Nc2ccc(S(=O)(=O)N3CCC(N4CCOCC4)CC3)cc2OC)nc2[nH]cc(C(F)(F)F)c12 [Example 184] | % | 0.45

Prompt: Could you tell me which remaining binding at 1 µM is on file for CNc1cc(Nc2ccc(P3(=O)CCN(C4CC4)CC3)cc2OC)nc2[nH]cc(C(F)(F)F)c12 [Example 205] ?
Completion: 0.25

Prompt: Could you tell me which remaining binding at 1 µM is on file for CNc1cc(Nc2ccc(C(=O)N3CC[C@H](N4CCOCC4)C3)c3c2OCC3)nc2[nH]cc(C(F)(F)F)c12 [Example 217] ?
Completion: 8.2
